Molecular target: T1, EsCas13d, nuclease-dead (Eubacterium siraeum, UniProt B0MS50, R295A;H300A;R849A;H854A)
T1 sequence: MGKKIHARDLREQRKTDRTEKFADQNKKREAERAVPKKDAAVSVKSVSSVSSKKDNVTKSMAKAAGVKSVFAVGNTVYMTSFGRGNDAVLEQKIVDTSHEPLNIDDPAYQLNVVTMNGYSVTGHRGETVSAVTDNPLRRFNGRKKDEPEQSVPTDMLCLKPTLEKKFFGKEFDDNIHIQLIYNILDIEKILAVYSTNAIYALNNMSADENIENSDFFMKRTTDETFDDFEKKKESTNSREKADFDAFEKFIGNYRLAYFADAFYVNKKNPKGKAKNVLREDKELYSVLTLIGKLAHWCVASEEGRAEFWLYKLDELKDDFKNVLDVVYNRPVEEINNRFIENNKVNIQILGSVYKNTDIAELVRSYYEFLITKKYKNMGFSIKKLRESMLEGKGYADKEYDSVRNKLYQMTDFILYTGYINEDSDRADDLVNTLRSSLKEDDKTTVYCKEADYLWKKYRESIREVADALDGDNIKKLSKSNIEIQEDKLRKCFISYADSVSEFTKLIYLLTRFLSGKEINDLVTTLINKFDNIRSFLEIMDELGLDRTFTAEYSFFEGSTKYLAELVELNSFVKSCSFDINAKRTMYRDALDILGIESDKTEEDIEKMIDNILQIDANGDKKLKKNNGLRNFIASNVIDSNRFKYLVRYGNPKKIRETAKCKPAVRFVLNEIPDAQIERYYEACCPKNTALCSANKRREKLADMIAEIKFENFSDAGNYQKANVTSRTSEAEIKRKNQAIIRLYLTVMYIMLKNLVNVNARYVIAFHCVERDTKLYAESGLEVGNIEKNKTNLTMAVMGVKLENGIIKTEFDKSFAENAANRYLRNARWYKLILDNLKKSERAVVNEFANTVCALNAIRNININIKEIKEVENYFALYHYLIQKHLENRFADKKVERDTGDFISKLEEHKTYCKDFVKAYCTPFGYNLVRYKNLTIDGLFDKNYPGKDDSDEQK
Assay: crRNA (strand 1, pre-loaded); Mg2+; 40 mM Tris-HCl pH 7.5, 150 mM NaCl, 6 mM MgCl2, 1 mM DTT, 0.1% Tween-20, 0.2 mg/ml BSA; 25 C; 10 min per concentration, then washed
Details: tags: His6-TwinStrep-SUMO cleaved; N-terminal SNAP kept (SNAP-Surface 488); label: 3' end held by stalled T7 RNA polymerase
assayMetric: pKd
Answers are plain numbers, as −log10 of the molar value.

These recorded examples may help you get a feel for the data.
[[record]]
binder = "target 1 MT 5'PFS UCC 3'PFS AUC (mixed) RNA 1: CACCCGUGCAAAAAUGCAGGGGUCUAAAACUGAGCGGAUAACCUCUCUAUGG RNA 2: GGGAAUGGAUCCACAUCUACGAAUUCUCCCCAUAGAGAGGUUAUCCGCUCAAUCAGAUCGGAAGAGCACACGU"
measurement = 7.36

[[record]]
binder = "target 1 insU 3' of 21,insA 3' of 3 (mixed) RNA 1: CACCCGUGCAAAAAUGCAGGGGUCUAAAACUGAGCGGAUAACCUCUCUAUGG RNA 2: GGGAAUGGAUCCACAUCUACGAAUUCGUACCUAUAGAGAGGUUAUCCGCUACACCGAGAUCGGAAGAGCACACGU"
measurement = 7.74

[[record]]
binder = "target 1 A9G,A14U (mixed) RNA 1: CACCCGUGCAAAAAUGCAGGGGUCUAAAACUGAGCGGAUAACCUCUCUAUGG RNA 2: GGGAAUGGAUCCACAUCUACGAAUUCGUACCAUAGAGUGGUUGUCCGCUCACCGAGAUCGGAAGAGCACACGU"
measurement = 7.19


For every record below, what is its pKd?
1. target 1 U19C,C22A (mixed) RNA 1: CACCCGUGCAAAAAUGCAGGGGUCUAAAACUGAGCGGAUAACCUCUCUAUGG RNA 2: GGGAAUGGAUCCACAUCUACGAAUUCGUAACACAGAGAGGUUAUCCGCUCACCGAGAUCGGAAGAGCACACGU
2. target 1 del15,del22 (mixed) RNA 1: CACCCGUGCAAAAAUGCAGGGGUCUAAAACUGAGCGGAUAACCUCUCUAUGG RNA 2: GGGAAUGGAUCCACAUCUACGAAUUCGUACAUAGAAGGUUAUCCGCUCACCGAGAUCGGAAGAGCACACGU

[7.37, 7.27]

For every record below, what is its pKd?
1. target 3 C1U,U2G (mixed) RNA 1: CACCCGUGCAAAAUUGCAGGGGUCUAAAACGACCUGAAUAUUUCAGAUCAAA RNA 2: GGGAAUGGAUCCACAUCUACGAAUUCGUUUUUGAUCUGAAAUAUUCAGGGUUGCAGAUCGGAAGAGCACACGU
2. target 1 insC 3' of 10,insG 3' of 10 (mixed) RNA 1: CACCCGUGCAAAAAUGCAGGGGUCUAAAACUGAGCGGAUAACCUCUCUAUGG RNA 2: GGGAAUGGAUCCACAUCUACGAAUUCGUACCAUAGAGAGGUUCGAUCCGCUCACCGAGAUCGGAAGAGCACACGU
3. target 1 MT 5'PFS AGG 3'PFS ACU (mixed) RNA 1: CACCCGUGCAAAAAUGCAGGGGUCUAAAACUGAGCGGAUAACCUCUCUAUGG RNA 2: GGGAAUGGAUCCACAUCUACGAAUUCAGGCCAUAGAGAGGUUAUCCGCUCAACUAGAUCGGAAGAGCACACGU

7.04
7.87
7.38

Data origin, for the record: paper PMC10786891
